- TARGET ENTITY: SRSF1 RRM tandem (human, UniProt Q07955 1-196)
- Sequence (Q07955 1-196): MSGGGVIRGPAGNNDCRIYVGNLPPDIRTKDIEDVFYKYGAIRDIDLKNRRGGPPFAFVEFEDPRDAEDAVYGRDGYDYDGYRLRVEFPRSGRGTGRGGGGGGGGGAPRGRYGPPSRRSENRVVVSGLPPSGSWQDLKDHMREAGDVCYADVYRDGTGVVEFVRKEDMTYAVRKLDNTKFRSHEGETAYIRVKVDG
- ASSAY TEXT: FP; FP, 10 nM RNA, 37 C 30 min then 25 C 10 min; 21-mers: 25 mM KCl, 0.25 M Arg/Glu, 20 mM Tris-HCl pH 7.5, 0.1 mM EDTA, 0.1 mM TCEP, 0.02% Tween 20; 8-mers: 35 mM
- RECORDED CONDITIONS: protein: recombinant; tags: none (SUMO cleaved); label: 5' fluorescein; G-quadruplex (parallel)
EXPERIMENTAL ENDPOINT: pKd
API: returns pKd as number; meaning -log10 of concentration in mol/L.

-- ask Fill in the blank: the reported pKd of GGGGGCUGGGCGGGGACCGGG (structured_RNA) [ARPC2 GQ] is ____.
-- reply 6.66
